- TESTED_TARGET: recombinant E. coli UPPS (EcoUPPS) (Escherichia coli, UniProt P60472)
- Sequence (P60472 whole entry): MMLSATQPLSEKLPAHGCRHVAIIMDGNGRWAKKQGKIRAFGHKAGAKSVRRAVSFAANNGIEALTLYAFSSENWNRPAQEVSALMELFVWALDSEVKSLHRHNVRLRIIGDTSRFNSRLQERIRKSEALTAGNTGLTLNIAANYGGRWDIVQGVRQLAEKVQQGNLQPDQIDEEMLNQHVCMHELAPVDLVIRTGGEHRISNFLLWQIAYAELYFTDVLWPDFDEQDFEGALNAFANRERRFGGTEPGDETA
- TEST_CONTEXT: EcoUPPS
OBSERVATION_TYPE: pIC50
Friendly reminder that pIC50 comes from taking -log10 of the concentration in mol/L.

GET /value?item= COc1cc(O)c2c(O)c3c(c4c2c1[C@]1(C4)C(C)=CCCC1(C)C)[C@H](O)[C@@]1(O)CC(=O)C(C(N)=O)=C(O)[C@@]1(O)C3=O &field=pIC50 returns 5.41

###

- TESTED_TARGET: recombinant E. faecalis UPPS (EfaUPPS) (Enterococcus faecalis)
- Sequence (Q831K9 whole entry): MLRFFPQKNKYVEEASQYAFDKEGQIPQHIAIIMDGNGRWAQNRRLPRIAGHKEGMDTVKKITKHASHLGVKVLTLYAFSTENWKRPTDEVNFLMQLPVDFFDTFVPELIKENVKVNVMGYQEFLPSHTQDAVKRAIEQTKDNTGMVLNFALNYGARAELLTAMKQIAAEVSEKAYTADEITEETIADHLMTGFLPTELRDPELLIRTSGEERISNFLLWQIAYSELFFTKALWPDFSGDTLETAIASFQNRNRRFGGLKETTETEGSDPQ
- ASSAY_METHOD_TEXT: UPPS inhibition assay
- TEST_CONTEXT: EfaUPPS, enzyme-coupled fluorescence assay
OBSERVATION_TYPE: pIC50
Friendly reminder that pIC50 comes from taking -log10 of the concentration in mol/L.

Item: COc1cc(O)c2c(O)c3c(c4c2c1[C@]1(C4)C(C)=CCCC1(C)C)[C@H](O)[C@@]1(O)CC(=O)C(C(N)=O)=C(O)[C@@]1(O)C3=O | System: recombinant E. faecalis UPPS (EfaUPPS) (Enterococcus faecalis) | pIC50: 5.80
